Numbers sourced from patent US9096560B2.

- Tested on: Alopecurus myosuroides (ALOMY)
- assay_info: Example B post-emergence herbicidal test, ALOMY
- Format: in vivo
- test_parameters: Alopecurus myosuroides, 312 h, rate 250 g/ha, evaluated after 13 days, scale 0-100, read-out: Post-emergence activity ALOMY (100=total damage to plant; 0=no damage to plant)
attribute_measured: pest or weed control at 250 g/ha (%)

Cc1cc(C)c(C2=C(OC(=O)C(C)(C)C)C/C(=C\C3CCOCC3)C2=O)c(C)c1 [Compound P11]	90
Cc1cc(C)c(C2C(=O)CC(CC3CCN(S(=O)(=O)C(F)(F)F)CC3)C2=O)c(C)c1 (centres unmarked) [Compound T112]	40
CC(C)=CC(=O)N1CCC(CC2CC(=O)C(c3c(C)cc(C)cc3C)C2=O)CC1 (centres unmarked) [Compound T104]	70
CCSC(=O)OC1=C(c2c(C)cc(C)cc2C)C(=O)/C(=C/C2CCN(C(=O)SCC)C2)C1 (centres unmarked) [Compound P47]	70
Cc1cc(C)c(C2=C(OC(=O)C(C)(C)C)CC(CC3CCCOC3)C2=O)c(C)c1 (centres unmarked) [Compound P37]	90
Cc1cc(C)c(C2C(=O)CC(CC3CCOCC3)C2=O)c(C)c1 (centres unmarked) [Compound T4]	100
Cc1cc(C)c(C2C(=O)CC(CC3CCN(C(=O)c4ccc(Cl)c(Cl)c4)CC3)C2=O)c(C)c1 (centres unmarked) [Compound T74]	70
Cc1cc(C)c(C2=C(OC(=O)C(C)(C)C)CC(CC3CCN(C(=O)C(C)(C)C)C3)C2=O)c(C)c1 (centres unmarked) [Compound P59]	90
